Entries and their measured LC50 follow.
system: Aphis gossypii; assay: Insecticidal activity against Aphis gossypii (cotton aphid) infested one week old Crookneck squash plants assessed as insect mortality measured after 3 days post compound application under green house conditions; format: functional; settings: Aphis gossypii, 72 h
QUANTITY_NAME: LC50

>>> value("Cc1cc(-c2ccc(Cl)c(F)c2)sc1-c1nc(-c2c(F)cccc2Cl)nn1C")
"0.923 mg/L"
>>> value("Cc1cc(-c2ccc(OC(F)(F)C(F)Cl)cc2)sc1-c1nc(-c2c(F)cccc2Cl)nn1C (stereo not given)")
"< 0.5 mg/L"
>>> value("Cc1cc(-c2ccc(F)c(F)c2)sc1-c1nc(-c2c(F)cccc2Cl)nn1C")
"4.41 mg/L"
>>> value("Cc1c(Br)csc1-c1nc(-c2c(F)cccc2Cl)nn1C")
"0.7 mg/L"
>>> value("O=[N+]([O-])/N=C1\\NCCN1Cc1ccc(Cl)nc1")
"0.05 mg/L"
>>> value("Cc1cc(-c2ccc(Cl)cc2F)sc1-c1nc(-c2c(F)cccc2Cl)nn1C")
"4.93 mg/L"
>>> value("Cc1cc(-c2ccc(OC(F)(F)F)cc2)sc1-c1nc(-c2c(F)cccc2Cl)nn1C")
"0.5 mg/L"
>>> value("Cc1cc(-c2ccc(F)c(Cl)c2)sc1-c1nc(-c2c(F)cccc2Cl)nn1C")
"9.28 mg/L"
>>> value("Cc1c(-c2ccc(OC(F)(F)F)cc2)csc1-c1nc(-c2c(F)cccc2Cl)nn1C")
"0.07 mg/L"
>>> value("Cc1c(-c2ccc(OC(F)(F)C(F)Cl)cc2)csc1-c1nc(-c2c(F)cccc2Cl)nn1C (stereo not given)")
"< 5 mg/L"

----------
system: Tetranychus urticae; test: Insecticidal activity against female Tetranychus urticae (two-spotted spider mite) infested cotton leaf disks followed by 2.5 ppm compound spraying after oviposit assessed as insect mortality measured after 6 days post compound application under green house conditions; type: functional; details: foliar, 144 h
QUANTITY_NAME: mortality at 2.5 ppm (%)

>>> value("Cc1cc(-c2cccc(C(F)(F)F)c2F)sc1-c1nc(-c2c(F)cccc2Cl)nn1C")
90
>>> value("Cc1ccc(-c2sc(-c3nc(-c4c(F)cccc4Cl)nn3C)c(Cl)c2Cl)cc1")
90
>>> value("Cc1sc(-c2nc(-c3c(F)cccc3Cl)nn2C)c(C)c1-c1ccc(C(F)(F)F)cc1")
90
>>> value("Cn1nc(-c2c(F)cccc2Cl)nc1-c1sc(-c2ccc(-c3ccccc3)cc2)c(Cl)c1Cl")
80
>>> value("CCOc1ccc(-c2cc(Cl)c(-c3nc(-c4c(F)cccc4Cl)nn3C)s2)cc1")
90
>>> value("Cc1cc(-c2ccc(F)c(F)c2)sc1-c1nc(-c2c(F)cccc2Cl)nn1C")
60
>>> value("CCOc1ccc(-c2sc(-c3nc(-c4c(F)cccc4Cl)nn3C)c(Cl)c2Br)cc1")
60
>>> value("Cc1cc(-c2ccc3c(c2)OCCO3)sc1-c1nc(-c2c(F)cccc2Cl)nn1C")
90
>>> value("Cc1c(-c2nc(-c3c(F)cccc3Cl)nn2C)sc(Br)c1-c1ccc(OC(F)(F)C(F)Br)cc1 (centres undefined)")
90
>>> value("Cn1nc(-c2c(F)cccc2F)nc1-c1sc(-c2ccc(OC(F)(F)F)cc2)cc1Cl")
90
>>> value("Cc1c(-c2ccc(OC(F)(F)C(F)Br)cc2)csc1-c1nc(-c2c(F)cccc2Cl)nn1C (centres undefined)")
90
>>> value("Cc1cc(-c2ccc(F)cc2)sc1-c1nc(-c2c(F)cccc2Cl)nn1C")
60
>>> value("Cc1c(-c2ccc(C(C)C)cc2)csc1-c1nc(-c2c(F)cccc2Cl)nn1C")
90
>>> value("Cc1c(-c2ccc(OC(F)(F)C(F)Cl)cc2)csc1-c1nc(-c2c(F)cccc2Cl)nn1C (centres undefined)")
90
>>> value("Cc1cc(-c2ccc(C(C)C)cc2)sc1-c1nc(-c2c(F)cccc2Cl)nn1C")
90
>>> value("Cc1sc(-c2nc(-c3c(F)cccc3Cl)nn2C)c(C)c1-c1ccc(OC(F)(F)F)cc1")
90
>>> value("Cc1cc(-c2ccc(OC(F)(F)C(F)Cl)cc2)sc1-c1nc(-c2c(F)cccc2Cl)nn1C (centres undefined)")
90
>>> value("Cc1c(-c2nc(-c3c(F)cccc3Cl)nn2C)sc(Cl)c1-c1ccc(OC(F)(F)F)cc1")
90

----------
compounds and their reported LC50
test system: Heliothis virescens; assay: Insecticidal activity against Heliothis virescens (tobacco budworm) second-instar larvae infested on compound pre-treated cotton cotyledon disk assessed as insect mortality measured 5 days post compound treatment under green house conditions; assay type: functional; details: Heliothis virescens
QUANTITY_NAME: LC50

>>> value("Cc1c(-c2ccc(OC(F)(F)F)cc2)csc1-c1nc(-c2c(F)cccc2Cl)nn1C")
"> 400 µg/mL"
>>> value("Cn1nc(-c2c(F)cccc2Cl)nc1-c1sc(-c2ccc(OC(F)(F)C(F)Cl)cc2)cc1Cl (stereo not drawn)")
"< 1.6 µg/mL"
>>> value("Cc1cc(-c2ccc(OC(F)(F)C(F)Cl)cc2)sc1-c1nc(-c2c(F)cccc2Cl)nn1C (stereo not drawn)")
"< 1.6 µg/mL"

----------
system: Spodoptera exigua; experiment: Insecticidal activity against Spodoptera exigua second-instar larvae feeded on compound treated lepidopteran diet assessed as insect mortality measured 5 days post compound treatment under green house conditions; type: functional; settings: Spodoptera exigua, 120 h
QUANTITY_NAME: LC50

>>> value("Cn1nc(-c2c(F)cccc2Cl)nc1-c1sc(-c2ccc(OC(F)(F)F)cc2)cc1Cl")
"< 1.6 µg/mL"
>>> value("Cn1nc(-c2c(F)cccc2Cl)nc1-c1sc(-c2ccc(OC(F)(F)C(F)Br)cc2)cc1Cl (stereo not drawn)")
"< 1.6 µg/mL"
>>> value("Cn1nc(-c2c(F)cccc2Cl)nc1-c1sc(-c2ccc(OC(F)(F)C(F)Cl)cc2)cc1Cl (stereo not drawn)")
"< 1.6 µg/mL"

----------
test system: Trichoplusia ni; test: Insecticidal activity against Trichoplusia ni (cabbage looper) second-instar larvae infested on 400 ppm compound pre-treated cabbage leaf disk assessed as insect mortality measured 5 days post compound treatment under green house conditions; format: functional; settings: at 400 ppm
As shown below, each of these compounds has a reported mortality value.
QUANTITY_NAME: mortality

>>> value("Cc1cc(-c2ccc(OC(F)(F)C(F)Br)cc2)sc1-c1nc(-c2c(F)cccc2Cl)nn1C (stereo not drawn)")
"<50%"
>>> value("Cc1c(-c2ccc(OC(F)(F)C(F)Cl)cc2)sc(-c2nc(-c3c(F)cccc3Cl)nn2C)c1C (stereo not drawn)")
"<50%"
>>> value("Cc1sc(-c2nc(-c3c(F)cccc3Cl)nn2C)c(C)c1-c1ccc(Cl)cc1")
"<50%"
